Measured values drawn from ChEMBL document CHEMBL1201862 for this set.

- System: SNB-75
- procedure details: NCI tumour cell line growth inhibition, 48 h
Active and inactive are the calls of the source. Rule as the data show it: active = GI50 up to about 1.1 µM and inactive = higher.
Reply using exactly one outcome from Y = active, N = inactive

Just curious, what result did COC(=O)CCC(NC(=S)N/N=C/c1ccco1)C(=O)OC (configuration not stated) get here?
N

Record lookup: outcome of this test for `FC(F)(F)c1nc(-c2ccccc2)oc1Sc1oc(-c2ccccc2)nc1C(F)(F)F` ?
N

Write down the call the test reported for this compound. Item: `CSC(Cc1ccc2c(c1)Sc1ccccc1O2)=[N+]1CCOCC1`
N

Query: recorded result category for CCCC(=O)OCC1OC(n2ccc(N)nc2=O)C(OC(=O)CCC)C1OC(=O)CCC (configuration not stated) in this test
N

Assay result, entry `COc1ccc(NCC(=O)Nn2c(C)nc3ccc(S(=O)(=O)Nc4ccc(OC)cc4)cc3c2=O)cc1` — outcome?
N

I'd appreciate the recorded outcome for COc1cc([C@@H]2c3cc4c(cc3[C@@H](NC(=O)c3ccc(C#N)cc3)C3COC(=O)[C@@H]32)OCO4)cc(OC)c1O (some centres not stated) from this test.
Y

Identify the outcome logged in this assay for the compound shown: `O=NN1CCCS1(=O)=O`
N

Can you look up the reported call for Fc1cccc(F)c1C1SCc2nc3ccccc3n21 (configuration not stated) for me?
N

Which outcome was assigned to `CCOc1ccc2c(c1)/C(=C(\C(Cl)=C(Cl)Cl)[N+](=O)[O-])N2` in this test?
N

Lab log entry: `CCCCCC/C=C/C#CCCCCCCCC(=O)O` — outcome as called in the assay?
N

Kindly provide the recorded test outcome for the following compound: COc1ccc2c(c1)NC1(O)c3ccccc3C(=O)C21O (configuration not stated)
N

For this compound, state the assay outcome: `O=c1[nH]c(=O)n2n1C1C=CC2CC1`
N

Which result was noted for this compound in the test: `Cc1cn(CCCC2=NCCCN2)c(=O)[nH]c1=O`
N

So what was the verdict on `O=C1Nc2ccccc2/C1=C1/Nc2ccccc2/C1=N/OCCOCCO` in this test?
N

Assay outcome for `N=C(N)NS(=O)(=O)c1ccc(NC(=O)c2cccc3c(NNc4ccc(S(N)(=O)=O)cc4)c4ccccc4nc23)cc1` : what was it?
N

Name the outcome recorded for `CCCCCC(=O)c1ccc2[nH]c3c(C)cc([N+](=O)[O-])c(C)c3c2c1` in the assay.
N

Hi, sorry to bother you, what did the test record for `Cc1ccccc1/N=C/c1ccc(N(CCC#N)S(=O)(=O)c2ccccc2)cc1` ?
N

I'd appreciate the recorded outcome for CC1C[C@]2(C)C(=S)Nc3ccccc3[C@@H]2Nc2ccccc21 (some centres not stated) from this test.
N

Recorded test outcome, item `Cc1cc(O)c2c(c1O)C(=O)c1c(O)ccc(O)c1C2=O`
N

Given `CC1(C)[C@@H](Cn2cnc3c(O)nc(N)nc32)CC[C@@]1(C)CO` , state the outcome it received in this test.
N

// outcome(item) with item = `CC1(C)OC(=O)C(C#N)=C1/C=C/c1coc2ccc(Cl)cc2c1=O`
N

Dear all, I need the recorded test outcome for CCC(c1ccc(N(C)C)cc1)C1NC(=S)NC1=O (configuration not stated) , thank you.
N

----------
- Tested on: KM12
- procedure details: NCI tumour cell line growth inhibition, 48 h
Activity calls are given as the source filed them. Cut-off read from the data, not from the text of the source: active = GI50 up to about 1.1 µM and inactive = higher.
Bench note: report the call from YES = active, NO = inactive

Dear colleague, could you share the recorded outcome for COc1cc([C@@H]2c3cc4c(cc3C[C@@H]3COC(=O)C32)OCO4)cc(OC)c1O (stereo not given in full) when you have a moment?
YES

Tell me the recorded outcome of this test for CC12CCc3ccccc3C1=NNC(=O)C2 (stereo not given) .
NO

Which result was noted for this compound in the test: `CCOC(=O)Cc1nnc2n(-c3ccccc3)c(=O)c3ccccc3n12`
NO

Entry COc1ccc2c(c1)NC1(O)c3ccccc3C(=O)C21O (stereo not given) : call = ?
NO

I'd appreciate the recorded outcome for `CCOC(=O)C1=C(NC)OCC1=O` from this test.
NO

Can you look up the reported call for `O=c1c2ccccc2nc(-c2ccccc2)n1NC(=S)Nc1cccc(Cl)c1` for me?
NO

What was the test verdict on `CCCC(=O)Nc1cn(COC)c(C(=O)N2C[C@H]3C[C@@]34C2=CC(=O)c2[nH]cc(C)c24)n1` ?
NO

So what was the verdict on `NC(=S)N/N=C\c1ccc(OCc2cccc(COc3ccc(/C=N/NC(N)=S)cc3)n2)cc1` in this test?
NO

Recorded call for `CCOC(=O)C1(C(=O)OCC)[C@@H](c2ccccc2)C2=NO[C@@H]3CCC[C@H]1[C@H]23` ?
NO

Hello, I am checking results. What call was entered for `O=C(CC(Cl)=C(Cl)Cl)c1ccccc1` ?
NO
